The values you see were collected from patent US20070184522A1.

# SUBJECT_OF_TEST: Fas-Fc (Mus musculus, UniProt P25446)
# Construct: purchased R&D
# Sequence (P25446 22-169 limits assumed): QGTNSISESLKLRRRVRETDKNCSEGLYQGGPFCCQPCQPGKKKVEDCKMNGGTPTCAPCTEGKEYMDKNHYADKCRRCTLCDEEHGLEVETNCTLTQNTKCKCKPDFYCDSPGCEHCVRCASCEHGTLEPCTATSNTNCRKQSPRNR
# PROTOCOL: ELISA of Fas-Fc binding to coated synthetic polypeptides
# EXPERIMENTAL_CONDITIONS: peptides coated at 1 μg/ml, increasing Fas-Fc, OD 450 nm
# Method: The Met alpha but not beta chain binds to Fas (FIG. 1a). […] FIG. 1d depicts the amino acid sequence alignment of alpha chain with FasL, determined using the CLUSTALW, SIM+LALNVIEW, and ALIGN at ExPASy Proteomic Tools (available on the internet at us.expresly.org/tools). […] After washing the wells, anti-human […]-HRP conjugates (1:20,000) were added to detect the bound Fas-Fc using TMD dye and the OD value was determined at a wavelength of 450 nm. […]
VALUE_TYPE: Fas binding by ELISA

[in] Find the recorded Fas binding by ELISA belonging to HHIYLGATNYIY [12 mer] and report it.
[out] bound Fas strongly

[in] Try this sequence too: FTAETPIQNVVLHGHHIYLGATNYIYVLNDKDLQKV [36 mer]
[out] bound Fas strongly

[in] Try this sequence too: AHSSYLGAVFNLT [YLGA-13 mer]
[out] bound Fas strongly
